System: 485368-065-R3-J5-PDC spheroids with HUVEC/MSC, viability
Assay: Anticancer human tumor 485368-065-R3-J5-PDC patient-derived pancreatic carcinoma cell line growth inhibition [RAS]
Settings: curve of compound
Value Type: IC50

compound="CC1(O)CCCC1n1c(=O)c(C(F)F)cc2cnc(NC3CCN(S(C)(=O)=O)CC3)nc21 (centres undefined)" value_type=IC50 reported_result="469 nM [middle of 4 runs]"
compound="NC1c2ccccc2OC12CCN(c1cnc3c(N4CCCc5ncccc54)n[nH]c3n1)CC2 (centres undefined)" value_type=IC50 reported_result="> 10 µM"
compound=C=CC(=O)Nc1cc(Nc2nccc(-c3cn(C)c4ccccc34)n2)c(OC)cc1N(C)CCN(C)C value_type=IC50 reported_result="> 1 µM"
compound="C=CC(=O)N1CCN(c2nc(OCC3CCCN3C)nc3c(F)c(-c4nc(N)cc(C)c4C(F)(F)F)c(Cl)cc23)C(C)C1 (centres undefined)" value_type=IC50 reported_result="> 1 µM"
compound=O=C(c1ccc(F)c(F)c1Nc1ccc(I)cc1F)N1CC(O)([C@@H]2CCCCN2)C1 value_type=IC50 reported_result="42.7 nM [middle of 4 runs]"
compound=CCc1c2c(nc3ccc(O)cc13)-c1cc3c(c(=O)n1C2)COC(=O)[C@]3(O)CC value_type=IC50 reported_result="2.19 nM [middle of 4 runs]"
compound="CC(Nc1ccc2c(c1)OCCn1cc(N3C(=O)OCC3C(F)F)nc1-2)C(N)=O (centres undefined)" value_type=IC50 reported_result="> 10 µM"
compound="CCC(CC)c1cc(NC2CCC(N)C2)n2nccc2n1 (centres undefined)" value_type=IC50 reported_result="1.96 µM [middle of 4 runs]"
compound=C[C@@H](NC(=O)c1ncnc(N)c1Cl)c1ncc(C(=O)Nc2cc(C(F)(F)F)c(Cl)cn2)s1 value_type=IC50 reported_result="> 10 µM"

* * *

Tested on: 485368-065-R3-J5-PDC spheroids with HUVEC/MSC, viability
Test: Anticancer human tumor 485368-065-R3-J5-PDC cell line growth inhibition [RAS];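 further: spheroids exposed to agents for seven days before readout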
Settings: second compound 0.003 µM; first compound 0.1 µM; stronger effect = lower value
Value Type: viability, T/C (%)

compound="O=C(c1ccc(F)c(F)c1Nc1ccc(I)cc1F)N1CC(O)([C@@H]2CCCCN2)C1 + CCn1c(-c2cc(N3CCN(C)CC3)cnc2C(C)OC)c2c3cc(ccc31)-c1csc(n1)CC(NC(=O)C1CC1C)C(=O)N1CCCC(N1)C(=O)OCC(C)(C)C2" reported_result=10.8
compound="C=CC(=O)Nc1cc(Nc2nccc(-c3cn(C)c4ccccc34)n2)c(OC)cc1N(C)CCN(C)C + CCn1c(-c2cc(N3CCN(C)CC3)cnc2C(C)OC)c2c3cc(ccc31)-c1csc(n1)CC(NC(=O)C1CC1C)C(=O)N1CCCC(N1)C(=O)OCC(C)(C)C2" reported_result=14.6
compound="CC1(O)CCCC1n1c(=O)c(C(F)F)cc2cnc(NC3CCN(S(C)(=O)=O)CC3)nc21 (centres undefined) + CCn1c(-c2cc(N3CCN(C)CC3)cnc2C(C)OC)c2c3cc(ccc31)-c1csc(n1)CC(NC(=O)C1CC1C)C(=O)N1CCCC(N1)C(=O)OCC(C)(C)C2" reported_result=15.5
compound="CC(C)n1nc(-c2ccc3oc(N)nc3c2)c2c(N)ncnc21 + CCn1c(-c2cccnc2C(C)OC)c2c3cc(ccc31)N1CCOC(CC(NC(=O)C(C(C)C)N(C)C(=O)C3(F)CCN(C(=O)C#CC(C)(C)N(C)C)CC3)C(=O)N3CCCC(N3)C(=O)OCC(C)(C)C2)C1" reported_result=19.4

* * *

System: 485368-065-R3-J5-PDC spheroids with HUVEC/MSC, viability
Test: Anticancer human tumor 485368-065-R3-J5-PDC cell line growth inhibition [RAS];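 further: spheroids exposed to agents for seven days before readout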
Details: curve of first compound; second compound 0.1 µM
Entries annotated with measured IC50
Value Type: IC50

molecule="C[C@@H](NC(=O)c1ncnc(N)c1Cl)c1ncc(C(=O)Nc2cc(C(F)(F)F)c(Cl)cn2)s1 + C=CC(=O)N1CCN(c2nc(OCC3CCCN3C)nc3c(F)c(-c4nc(N)cc(C)c4C(F)(F)F)c(Cl)cc23)C(C)C1" reported_result="> 10 µM"
molecule="O=C(c1ccc(F)c(F)c1Nc1ccc(I)cc1F)N1CC(O)([C@@H]2CCCCN2)C1 + C#Cc1c(F)ccc2cc(O)cc(-c3ncc4c(N5CC6CCC(C5)N6)nc(OCC56CCCN5CC(F)C6)nc4c3F)c12" reported_result="0.0337 µM"
molecule="CC(Nc1ccc2c(c1)OCCn1cc(N3C(=O)OCC3C(F)F)nc1-2)C(N)=O (stereo not drawn) + C#Cc1c(F)ccc2cc(O)cc(-c3ncc4c(N5CC6CCC(C5)N6)nc(OCC56CCCN5CC(F)C6)nc4c3F)c12" reported_result="> 10 µM"

* * *

System: 485368-065-R3-J5-PDC spheroids with HUVEC/MSC, viability
Assay: Anticancer human tumor 485368-065-R3-J5-PDC cell line growth inhibition [RAS];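 further: spheroids exposed to agents for seven days before readout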
Conditions: second compound 0.3 µM; first compound 0.1 µM; stronger effect = lower value
Entries annotated with measured viability, T/C
Value Type: viability, T/C (%)

compound="CCN1CCN(Cc2ccc(Nc3ncc(F)c(-c4cc(F)c5nc(C)n(C(C)C)c5c4)n3)nc2)CC1 + CCn1c(-c2cccnc2C(C)OC)c2c3cc(ccc31)N1CCOC(CC(NC(=O)C(C(C)C)N(C)C(=O)C3(F)CCN(C(=O)C#CC(C)(C)N(C)C)CC3)C(=O)N3CCCC(N3)C(=O)OCC(C)(C)C2)C1" reported_result=88.8
compound="C=CC(=O)Nc1cc(Nc2nccc(-c3cn(C)c4ccccc34)n2)c(OC)cc1N(C)CCN(C)C + CCn1c(-c2cccnc2C(C)OC)c2c3cc(ccc31)N1CCOC(CC(NC(=O)C(C(C)C)N(C)C(=O)C3(F)CCN(C(=O)C#CC(C)(C)N(C)C)CC3)C(=O)N3CCCC(N3)C(=O)OCC(C)(C)C2)C1" reported_result=112
compound="CC(C)n1nc(-c2ccc3oc(N)nc3c2)c2c(N)ncnc21 + CCn1c(-c2cccnc2C(C)OC)c2c3cc(ccc31)N1CCOC(CC(NC(=O)C(C(C)C)N(C)C(=O)C3(F)CCN(C(=O)C#CC(C)(C)N(C)C)CC3)C(=O)N3CCCC(N3)C(=O)OCC(C)(C)C2)C1" reported_result=22.4
compound="O=C(c1ccc(F)c(F)c1Nc1ccc(I)cc1F)N1CC(O)([C@@H]2CCCCN2)C1 + CCn1c(-c2cccnc2C(C)OC)c2c3cc(ccc31)N1CCOC(CC(NC(=O)C(C(C)C)N(C)C(=O)C3(F)CCN(C(=O)C#CC(C)(C)N(C)C)CC3)C(=O)N3CCCC(N3)C(=O)OCC(C)(C)C2)C1" reported_result=36.3
compound="C=CC(=O)N1CCN(c2nc(OCC3CCCN3C)nc3c(F)c(-c4nc(N)cc(C)c4C(F)(F)F)c(Cl)cc23)C(C)C1 (configuration not stated) + CCn1c(-c2cccnc2C(C)OC)c2c3cc(ccc31)N1CCOC(CC(NC(=O)C(C(C)C)N(C)C(=O)C3(F)CCN(C(=O)C#CC(C)(C)N(C)C)CC3)C(=O)N3CCCC(N3)C(=O)OCC(C)(C)C2)C1" reported_result=106
compound="CCC(CC)c1cc(NC2CCC(N)C2)n2nccc2n1 (configuration not stated) + CCn1c(-c2cc(N3CCN(C)CC3)cnc2C(C)OC)c2c3cc(ccc31)-c1csc(n1)CC(NC(=O)C1CC1C)C(=O)N1CCCC(N1)C(=O)OCC(C)(C)C2" reported_result=12.6
compound="CC(Nc1ccc2c(c1)OCCn1cc(N3C(=O)OCC3C(F)F)nc1-2)C(N)=O (configuration not stated) + CCn1c(-c2cccnc2C(C)OC)c2c3cc(ccc31)N1CCOC(CC(NC(=O)C(C(C)C)N(C)C(=O)C3(F)CCN(C(=O)C#CC(C)(C)N(C)C)CC3)C(=O)N3CCCC(N3)C(=O)OCC(C)(C)C2)C1" reported_result=101

* * *

Test system: 485368-065-R3-J5-PDC spheroids with HUVEC/MSC, viability
Assay: Anticancer human tumor 485368-065-R3-J5-PDC cell line growth inhibition [RAS];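 further: spheroids exposed to agents for seven days before readout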
Conditions: second compound 1 µM; first compound 0.1 µM; stronger effect = lower value
Entries annotated with measured viability, T/C
Value Type: viability, T/C

compound="Cc1nc(N2CCC3(CC2)COC(C)C3N)c(CO)nc1Sc1ccnc(N)c1Cl (stereo not given) + C#Cc1c(F)ccc2cc(O)cc(-c3ncc4c(N5CC6CCC(C5)N6)nc(OCC56CCCN5CC(F)C6)nc4c3F)c12" value_type="viability, T/C" reported_result=77.2%
compound="C=CC(=O)Nc1cc(Nc2nccc(-c3cn(C)c4ccccc34)n2)c(OC)cc1N(C)CCN(C)C + C=CC(=O)N1CCN(c2nc(OCC3CCCN3C)nc3c(F)c(-c4nc(N)cc(C)c4C(F)(F)F)c(Cl)cc23)C(C)C1" value_type="viability, T/C" reported_result=112%
compound="CCC(CC)c1cc(NC2CCC(N)C2)n2nccc2n1 (stereo not given) + C=CC(=O)N1CCN(c2nc(OCC3CCCN3C)nc3c(F)c(-c4nc(N)cc(C)c4C(F)(F)F)c(Cl)cc23)C(C)C1" value_type="viability, T/C" reported_result=92.3%
compound="C=CC(=O)N1CCN(c2nc(OCC3CCCN3C)nc3c(F)c(-c4nc(N)cc(C)c4C(F)(F)F)c(Cl)cc23)C(C)C1 (stereo not given) + C#Cc1c(F)ccc2cc(O)cc(-c3ncc4c(N5CC6CCC(C5)N6)nc(OCC56CCCN5CC(F)C6)nc4c3F)c12" value_type="viability, T/C" reported_result=97.6%
compound="CC(Nc1ccc2c(c1)OCCn1cc(N3C(=O)OCC3C(F)F)nc1-2)C(N)=O (stereo not given) + C=CC(=O)N1CCN(c2nc(OCC3CCCN3C)nc3c(F)c(-c4nc(N)cc(C)c4C(F)(F)F)c(Cl)cc23)C(C)C1" value_type="viability, T/C" reported_result=90.5%
